Recorded z-score by entry
- test: JC-1 mitochondrial signal, unstimulated myeloma cells – cell-based, JC-1 fluorescence, RPMI8226, 24 h, 100 nL compound, profiling panel (AID 1169); further: test concentration not given here
- settings: JC-1 mitochondrial potential fluorescence, higher = more signal
resultType: z-score

[[record]]
molecule = "CCOC(=O)C[C@H]1[C@H](OC(=O)c2ccc(C(=O)c3ccccc3)cc2)[C@@H](NC(=O)c2ccc3ccccc3n2)c2cc(OCCCO)ccc2N1C(=O)c1ccc2ccccc2n1"
observedvalue = -0.0794

[[record]]
molecule = "CCN(CC)c1ccc(N2CC=CC34O[C@@H]5/C=C\\CCCOC(=O)C5[C@H]3C(=O)N(CCCO)[C@@H]4C2=O)cc1 (some centres undefined)"
observedvalue = -0.0632

[[record]]
molecule = "O=C(NCCN1CCOCC1)[C@@H]1c2ccccc2C(=O)N(Cc2cc(F)cc(C(F)(F)F)c2)[C@H]1c1ccc(CO)cc1"
observedvalue = 0.738

[[record]]
molecule = "CCCCC(=C=CC[C@H](O)c1ccccc1OCCO)C[C@H](O)c1cc(Cl)cc(Cl)c1O"
observedvalue = -0.655


###

- Test system: Sam68 (KHDRBS1)
- test: compounds binding KHDRBS1 protein – biochemical, small-molecule microarray, 635 nm fluorescence, primary screen (AID 1125);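 further: score merges 667 nm channel intensity with signal to noise over triplicate slides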
- settings: higher = more signal
resultType: composite z-score

[[record]]
molecule = "COCCOC(=O)N1C(=O)[C@@]2(c3cc(C#CC4=CCCCC4)ccc31)[C@H](c1ccc(OCCO)cc1)N1[C@H](c3ccccc3)[C@H](c3ccccc3)OC(=O)[C@H]1[C@@H]2C(=O)Nc1nc2ccccc2s1"
observedvalue = 1.31

[[record]]
molecule = "[N-]=[N+]=NCc1ccccc1C[C@]1(C(N)=O)N=C(c2ccc(OCCCO)cc2)O[C@H]1c1ccccc1N=[N+]=[N-]"
observedvalue = 1.23

[[record]]
molecule = "CN(C)CCCN1C(=O)[C@@]2(c3ccc([N+](=O)[O-])cc3)CC(=O)N(C3CCCCC3)[C@@H]2c2ccc(CO)cc21"
observedvalue = -0.395

[[record]]
molecule = "NC(=O)[C@@]1(CCS(=O)(=O)c2ccccc2)N=C(c2ccc(OCCCO)cc2)O[C@H]1c1ccccc1"
observedvalue = 1.2

[[record]]
molecule = "CCN(CC)c1ccc(N2CC=CC34O[C@@H]5C=CCOC(=O)[C@@H]5[C@H]3C(=O)N(CCCCCO)[C@@H]4C2=O)cc1 (stereo partly drawn)"
observedvalue = -0.0514

[[record]]
molecule = "CCOC(=O)C[C@H]1[C@H](OC(=O)c2cc3ccccc3oc2=O)[C@@H](NC(=O)c2ccc3ccccc3c2)c2cc(OCCCO)ccc2N1C(=O)c1ccccc1"
observedvalue = 1.29

[[record]]
molecule = "O=C1[C@H]2C=C(Br)[C@H](C[C@@H]2OCCOCCO)[C@@]12CO2"
observedvalue = 0.421

[[record]]
molecule = "O=P(NCC1(CC2(c3ccccc3)CO2)CC1)(c1ccccc1)c1ccccc1 (stereo not drawn)"
observedvalue = -0.31

[[record]]
molecule = "CCCNC(=O)[C@@]1(C)c2ccccc2C(=O)N(C(C)C)[C@H]1c1ccc(CO)cc1"
observedvalue = -0.347

[[record]]
molecule = "COc1ccccc1CN1C(=O)c2ccccc2[C@](Cc2ccccc2I)(C(=O)NCc2ccccc2)[C@@H]1c1ccc(CO)cc1"
observedvalue = 0.505

[[record]]
molecule = "NC(=O)NCC#Cc1ccc2c(c1)[C@]1(C(=O)N2)[C@H](c2ccc(O)cc2)N2[C@H](c3ccccc3)[C@H](c3ccccc3)OC(=O)[C@H]2[C@@H]1C(=O)N1CCN(c2ncccn2)CC1"
observedvalue = -0.0586

[[record]]
molecule = "O=C1OCC=C[C@H]2OC34C=CCN(Cc5ccccc5)C(=O)[C@H]3N(CCCO)C(=O)[C@@H]4[C@@H]12 (stereo partly drawn)"
observedvalue = 0.89

[[record]]
molecule = "C=C[C@H](C)[C@H](O)c1ccc(OCCO)cc1"
observedvalue = -1.74

